All figures here come from the RNAGym collection of RNA variant scans (doi:10.7554/elife.80360).

B1: HDV Ribozyme (parent)
chain: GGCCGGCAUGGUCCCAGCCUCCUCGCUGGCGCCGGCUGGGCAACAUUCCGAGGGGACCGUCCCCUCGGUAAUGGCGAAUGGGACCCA

Variants of: B1
Assay: self-cleavage, relative activity (ratio to wild type); higher = more cleavage; co-transcriptional
Everything with self-cleavage lower than 0.4 is Criterion not met; everything else, including exactly 0.4, is Criterion met.

{"columns": ["mutation_annotation", "class_label"],
 "data": [
  ["G10U C15U", "Criterion met"],
  ["C33G G76C", "Criterion not met"],
  ["U12C C84U", "Criterion not met"],
  ["A43C C86A", "Criterion met"],
  ["G31A U60C", "Criterion not met"],
  ["G10C A45G", "Criterion met"],
  ["C49G C62U", "Criterion met"],
  ["U47G C84U", "Criterion not met"],
  ["A16C C66U", "Criterion met"],
  ["C22G G39C", "Criterion not met"],
  ["C36A A71G", "Criterion not met"],
  ["C18U A51U", "Criterion met"],
  ["U37G C58G", "Criterion not met"],
  ["C4U G11A", "Criterion not met"],
  ["C32G G68A", "Criterion not met"],
  ["U37C C41A", "Criterion met"],
  ["C63G C84A", "Criterion met"],
  ["A70C G73C", "Criterion met"],
  ["C24A C63G", "Criterion met"],
  ["C30A C63G", "Criterion not met"],
  ["C26A G34C", "Criterion not met"],
  ["G55U C85U", "Criterion met"]
]}
